# Tested System: T1, human CD22-ECD-His protein (human, UniProt P20273 20-687)
# T1 construct: Made in house in HEK293E; also called hCD22-ECD-His; recombinant human CD22-ECD His protein; not shown: His tag
# T1 sequence: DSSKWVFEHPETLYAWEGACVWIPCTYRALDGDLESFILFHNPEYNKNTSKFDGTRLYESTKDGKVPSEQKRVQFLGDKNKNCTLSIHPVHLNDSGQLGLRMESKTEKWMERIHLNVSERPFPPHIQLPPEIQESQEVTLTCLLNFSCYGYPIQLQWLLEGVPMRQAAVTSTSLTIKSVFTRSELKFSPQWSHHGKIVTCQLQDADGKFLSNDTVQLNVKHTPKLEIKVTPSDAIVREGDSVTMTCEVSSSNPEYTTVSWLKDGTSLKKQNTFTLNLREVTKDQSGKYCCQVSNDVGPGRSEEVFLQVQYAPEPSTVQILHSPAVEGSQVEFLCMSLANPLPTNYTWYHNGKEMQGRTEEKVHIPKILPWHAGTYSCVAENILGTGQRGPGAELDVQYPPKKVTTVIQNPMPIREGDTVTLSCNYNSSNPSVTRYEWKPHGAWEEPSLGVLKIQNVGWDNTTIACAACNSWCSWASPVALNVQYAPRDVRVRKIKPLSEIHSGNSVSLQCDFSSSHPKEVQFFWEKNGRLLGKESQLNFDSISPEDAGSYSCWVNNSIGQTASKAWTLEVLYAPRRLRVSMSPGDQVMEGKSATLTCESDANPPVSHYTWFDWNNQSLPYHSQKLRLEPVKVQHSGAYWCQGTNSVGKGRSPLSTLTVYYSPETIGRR
# Assay Explanation: ELISA, Ab 0.0001 nM
Field: OD450. Provide a value for each of the binders that follow.
State just the number; it will be interpreted in OD450.

Specify measured OD450 for F1.17.1 (antibody, human IgG1, kappa, V domains shown, Human-murine chimeric IgG1, kappa) VH: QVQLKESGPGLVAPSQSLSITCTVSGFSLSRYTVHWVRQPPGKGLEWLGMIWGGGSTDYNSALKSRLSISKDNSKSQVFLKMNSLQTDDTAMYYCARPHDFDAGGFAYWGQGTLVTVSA VL: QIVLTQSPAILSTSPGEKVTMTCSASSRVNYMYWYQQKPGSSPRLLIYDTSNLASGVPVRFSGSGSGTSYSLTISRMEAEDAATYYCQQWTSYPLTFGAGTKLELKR .
0.2

Specify measured OD450 for F1.257.3 (antibody, human IgG1, kappa, V domains shown, Human-murine chimeric IgG1, kappa) VH: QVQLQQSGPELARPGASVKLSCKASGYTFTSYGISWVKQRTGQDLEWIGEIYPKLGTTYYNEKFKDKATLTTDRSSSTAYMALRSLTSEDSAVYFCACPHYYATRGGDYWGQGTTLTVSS VL: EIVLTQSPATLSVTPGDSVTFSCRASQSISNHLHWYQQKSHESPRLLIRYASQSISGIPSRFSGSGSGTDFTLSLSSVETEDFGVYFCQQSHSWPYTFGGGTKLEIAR .
0.28
